B1: LINE1-mini (parent)
chain: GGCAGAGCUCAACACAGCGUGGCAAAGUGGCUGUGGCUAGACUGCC

Variants of: B1
Assay: self-cleavage, relative activity (ratio to wild type); higher = more cleavage; in vitro, sequencing; the parent is a self-cleaving ribozyme
Heads up, the class ranges for self-cleavage are group A: < 0.1; group B: ≥ 0.1 and < 0.2; group C: ≥ 0.2

Q) Band assignment needed for GGCAGAGCUCAACACAGCGUGGUAAAGUGGCUGUGGCAAGACUGCC [C23U U38A] please.
A) group C

Q) Band assignment needed for GGCAGAGCGCAACACAGCGUGGCAAAGUGGCUGUGGCUAGACUGCC [U9G] please.
A) group B

Q) Band assignment needed for GGCAGAGCUCAACAUAGCGUGGCCAAGUGGCUGUGGCUAGACUGCC [C15U A24C] please.
A) group C

Q) Band assignment needed for GGCAGUGCUCAACACAGCGAGGCAAAGUGGCUGUGGCUAGACUGCC [A6U U20A] please.
A) group C

Q) Band assignment needed for GGCAGAGCUCAACACAGCGUGGCAAAGUUGCUGUGGCUAGACUGCG [G29U C46G] please.
A) group C

Q) Band assignment needed for GGCAGAGCUCAACACAGCGUGGCAGAGUGGCUGUGGCUAGACAGCC [A25G U43A] please.
A) group B

Q) Band assignment needed for GGCAGAGCCCAACACAGCGUGGCAAAGUGGCUGUGGCAAGACUGCC [U9C U38A] please.
A) group A

Q) Band assignment needed for GGCAGAGCCCAACACAGCGUGGCAAAGUGGCUGCGGCUAGACUGCC [U9C U34C] please.
A) group A

Q) Band assignment needed for GGCAGAGCUCAACACAGCGUGGCAAAGCGGCUGUGGCUAGACUGAC [U28C C45A] please.
A) group C

Q) Band assignment needed for GGCCGAGCUCAACACAGCGUGGCAAAGUUGCUGUGGCUAGACUGCC [A4C G29U] please.
A) group C

Q) Band assignment needed for GGCAUACCUCAACACAGCGUGGCAAAGUGGCUGUGGCUAGACUGCC [G5U G7C] please.
A) group B

Q) Band assignment needed for GGCAGAGCGCAACACAGCGUGGCAAAGUGCCUGUGGCUAGACUGCC [U9G G30C] please.
A) group A

Q) Band assignment needed for GGCAGAGCUCAACACAGCUUGGCAAAGUGGCUGUGGCUAGCCUGCC [G19U A41C] please.
A) group A

Q) Band assignment needed for GGCAGAGCUCAACACAGCGUGGCAAAGUGGCUGUGGCAAAACUGCC [U38A G40A] please.
A) group B

Q) Band assignment needed for GGCGGAGCUCAACACAGCGUGGCAAAGGGGCUGUGGCUAGACUGCC [A4G U28G] please.
A) group C

Q) Band assignment needed for GGCAGAGCUCAACGCAGCGUGGCAAAGUGGCUGUGGCUAGACUGCG [A14G C46G] please.
A) group B

Q) Band assignment needed for GGCAGAGCUAAACACAGCGUGGGAAAGUGGCUGUGGCUAGACUGCC [C10A C23G] please.
A) group A

Q) Band assignment needed for GGCAGAGCUCAAGACAGCGAGGCAAAGUGGCUGUGGCUAGACUGCC [C13G U20A] please.
A) group B

Q) Band assignment needed for GGCAGAGCUCCACUCAGCGUGGCAAAGUGGCUGUGGCUAGACUGCC [A11C A14U] please.
A) group A

Q) Band assignment needed for GGCAGAGCUCAACACAGCGUGGCAAAGUGGCUAAGGCUAGACUGCC [G33A U34A] please.
A) group A

Q) Band assignment needed for GGCAGAGCUCAAGACAGCGUGGCAAAGUGGCUGUGGCUAGACUGCU [C13G C46U] please.
A) group C

Q) Band assignment needed for GGCAGAGCUCAACAGAGCGUGGCAAAGUGGCUGUGGCUAGACUGCA [C15G C46A] please.
A) group B
